I'd be grateful if you could share measured Papp A→B for these entries.
assay: Caco-2 cell monolayers intrinsic permeation assay in the presence of efflux inhibitors; format: in vitro ADME; details: Caco-2, with efflux inhibitors

The compound CCN(C(=O)c1cc(F)ccc1-n1c(C)c(C(=O)C2CCN(C(=O)[C@@H]3CCC4(CC4)N3)CC2)c2ccncc21)C(C)C (single isomer, unassigned) showed Papp A→B equal to 6.3 ×10⁻⁶ cm/s

The compound CC(C)c1ncsc1-c1cc(F)ccc1-n1cc(C(=O)C2CCN(C(=O)[C@H]3N[C@@H]4CC[C@H]3C4)CC2)c2ccncc21.O=CO showed Papp A→B equal to 1.3 ×10⁻⁶ cm/s

The compound C[C@@H]1CCC[C@H](C)N1C(=O)c1cc(F)ccc1-n1cc(C(=O)C2CCN(C(=O)[C@H]3N[C@@H]4CC[C@H]3C4)CC2)c2ccncc21 showed Papp A→B equal to 0.5 ×10⁻⁶ cm/s

The compound Cc1c(C(=O)C2CCN(C(=O)[C@H]3NC[C@@H]4C[C@@H]43)CC2)c2ccncc2n1-c1ccc(F)cc1-c1cnccc1C(C)C showed Papp A→B equal to 4 ×10⁻⁶ cm/s

The compound CC(C)N(C(=O)c1cc(F)ccc1-n1cc(C(=O)C2CCN(C(=O)[C@@H]3CC4(CC4)CN3)CC2)c2ccncc21)C(C)C showed Papp A→B equal to 0.8 ×10⁻⁶ cm/s

The compound C[C@@H]1CC[C@H](C)N1C(=O)c1cc(F)ccc1-n1cc(C(=O)C2CCN(C(=O)[C@H]3N[C@@H]4CC[C@H]3C4)CC2)c2ccncc21 showed Papp A→B equal to 0.4 ×10⁻⁶ cm/s

The compound CCN(C(=O)c1cc(F)ccc1-n1c(C)c(C(=O)C2CCN(C(=O)[C@@H]3CCC(C)(C)N3)CC2)c2ccncc21)C(C)C (single isomer, unassigned) showed Papp A→B equal to 1.2 ×10⁻⁶ cm/s

The compound Cc1c(C(=O)[C@@H]2CCN(C(=O)[C@@H]3CC[C@@H](C)N3)[C@@H](C)C2)c2ccncc2n1-c1ccc(F)cc1C(=O)N(C(C)C)C(C)C (stereo in doubt) showed Papp A→B equal to 4.3 ×10⁻⁶ cm/s

The compound COCCN(C)CCC[C@H](C(C)C)N1CCC(C(=O)c2cn(-c3ccc(F)cc3C(=O)N(C(C)C)C(C)C)c3cnccc23)CC1 (racemic) showed Papp A→B equal to 1.5 ×10⁻⁶ cm/s

The compound CC(C)N(C(=O)c1cc(F)ccc1-n1cc(C(=O)[C@H]2CCN(C[C@H]3CC[C@H](NS(C)(=O)=O)CC3)C2)c2ccncc21)C(C)C showed Papp A→B equal to 2.7 ×10⁻⁶ cm/s

Parameter requested: Papp A→B. Apply to each item below.
1. CC(C)N(C(=O)c1cc(F)ccc1-n1cc(C(=O)C2CCN(C(=O)[C@H]3NC4CCC3CC4)CC2)c2ccncc21)C(C)C
2. CC(C)N(C(=O)c1cc(F)ccc1-n1cc(C(=O)C2CCN(C(=O)[C@@H]3CCC(C)(C)N3)CC2)c2ccncc21)C(C)C

Response:
0.8 ×10⁻⁶ cm/s
1.9 ×10⁻⁶ cm/s
